System: His-tagged canine IL-31 (interleukin 31) recombinant protein (canine)
Test description: BLI (Gator), biotinylated antibody on streptavidin probe, canine IL-31 as analyte
Property measured: koff
The reply must contain the numeric value and, after it, the unit.

In the examples that follow, each entry is paired with its recorded koff.
Given the entry 6465-H3K3-canIgGB (antibody, V domains shown) VH: EVQLVESGGDLVKPGGSLRLSCVASGYSFTNYYLYWVRQAPGKGLEWVAELNPRNGGTNLNAKFKTRFTISRDNAKNMAYLQMNSLRAEDTAVYYCTRGGTTVVVRDVMDFWGQGTLVTVSS VL: DIVMTQTPLSLSVSPGEPASISCRASESVDSYGNSFMHWYRQKPGQSPQLLIYRASNLESGVPDRFSGSGSGTDFTLRISRVEADDAGVYYCQQSNEDPYTFGQGTKLEIKR , report its measured koff. 0.00164 s⁻¹

6465-H3K2-canIgGB (antibody, V domains shown) VH: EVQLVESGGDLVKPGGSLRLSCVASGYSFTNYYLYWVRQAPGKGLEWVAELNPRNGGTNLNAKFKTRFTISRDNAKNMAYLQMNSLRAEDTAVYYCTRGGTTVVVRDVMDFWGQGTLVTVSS VL: DIVLTQTPLSLSVSPGEPASISCRASESVDSYGNSFMHWYRQKPGQSPQLLIYRASNLESGVPDRFSGSGSRTDFTLRISRVEADDAGVYYCQQSNEDPYTFGQGTKLEIKR ? 0.00361 s⁻¹

Now examine the next entry.
Given the entry 7475-H3K2-canIgGB (antibody, V domains shown) VH: EVQLVESGGDLVKPGGSLRLSCVASGFTFSSYAMSWVRQAPGKGLQWVARISNGGDYIFYADTVKGRFTISRDNAKNTLYLQMNSLRAEDTAMYYCTRRGHYNTSSYWYFDVWGQGTLVTVSS VL: EIVMTQSPASLSLSQEEKVTITCKASENVGTYVSWYQQKPGQAPKLLIYGASNRYTGVPSRFSGSGSATDFTLTISSVEPEDVAVYYCGQSYSYPPTFGAGTKVELKR , report its measured koff. 0.000539 s⁻¹
